phosphorylation enrichment values, listed per item
molecular target: Fes (UniProt P07332); experiment: phosphorylation enrichment, bacterial display (enrichment ratio); higher = better substrate or ligand; peptides without Tyr show the background;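 further: 11-residue human phosphosite peptides and single-mutation variants displayed on the E. coli surface, counted by deep sequencing, each peptide's frequency after selection divided by its frequency in the unselected input library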;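 further: frequency after pTyr selection over input frequency; kinase dosed for 20-30% of maximal phosphorylation in three min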
Sequence (P07332 whole entry, looked up): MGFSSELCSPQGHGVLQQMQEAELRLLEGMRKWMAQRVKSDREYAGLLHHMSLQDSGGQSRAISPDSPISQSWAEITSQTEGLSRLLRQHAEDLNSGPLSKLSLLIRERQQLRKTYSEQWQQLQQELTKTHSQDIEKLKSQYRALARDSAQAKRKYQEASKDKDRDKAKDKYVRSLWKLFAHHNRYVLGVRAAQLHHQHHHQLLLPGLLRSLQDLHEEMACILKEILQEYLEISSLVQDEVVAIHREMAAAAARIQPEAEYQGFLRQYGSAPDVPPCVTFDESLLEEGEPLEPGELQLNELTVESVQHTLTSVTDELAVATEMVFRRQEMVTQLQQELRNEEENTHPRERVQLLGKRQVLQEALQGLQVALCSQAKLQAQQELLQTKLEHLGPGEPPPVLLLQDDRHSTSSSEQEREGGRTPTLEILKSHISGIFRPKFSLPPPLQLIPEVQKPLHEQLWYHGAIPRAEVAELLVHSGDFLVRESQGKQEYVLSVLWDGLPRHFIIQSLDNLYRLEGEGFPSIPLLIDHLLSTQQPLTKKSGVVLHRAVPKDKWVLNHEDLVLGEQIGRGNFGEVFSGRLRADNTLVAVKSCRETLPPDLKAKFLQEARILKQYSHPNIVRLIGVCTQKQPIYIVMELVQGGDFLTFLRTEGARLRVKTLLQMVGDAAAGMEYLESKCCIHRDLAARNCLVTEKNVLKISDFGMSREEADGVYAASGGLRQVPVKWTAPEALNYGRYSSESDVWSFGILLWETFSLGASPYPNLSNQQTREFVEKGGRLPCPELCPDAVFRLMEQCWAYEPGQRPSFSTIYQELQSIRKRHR
Lab note: jot the number down without any unit.

Consider the sequence PGRRFYVVACD [RNASE3_Y134] and give its recorded phosphorylation enrichment.
1.65

Consider the sequence GKAFIYASHIV [ZNF573_Y229] and give its recorded phosphorylation enrichment.
1

Consider the sequence RLRKYYLGKYL [KLB_Y906] and give its recorded phosphorylation enrichment.
0.728

More entries:
Consider the sequence SVVVPYEPPEI [TP53_Y220_V225I] and give its recorded phosphorylation enrichment.
1.25

Consider the sequence IGCHAYGDQYR [IDH1_Y135_R132C] and give its recorded phosphorylation enrichment.
1.19

Consider the sequence ELELLYPDRNS [NYX_Y284_L285P] and give its recorded phosphorylation enrichment.
1.27

Consider the sequence QGIPWYHSQSP [FOXF1_Y331_R330W] and give its recorded phosphorylation enrichment.
0.642

Consider the sequence DMLFQYLKQIE [RPAP3_Y569_YF] and give its recorded phosphorylation enrichment.
1.22

Consider the sequence GGFTCCCDGKK [PROS1_Y266_Y266C_YF] and give its recorded phosphorylation enrichment.
1.34
